Target chain: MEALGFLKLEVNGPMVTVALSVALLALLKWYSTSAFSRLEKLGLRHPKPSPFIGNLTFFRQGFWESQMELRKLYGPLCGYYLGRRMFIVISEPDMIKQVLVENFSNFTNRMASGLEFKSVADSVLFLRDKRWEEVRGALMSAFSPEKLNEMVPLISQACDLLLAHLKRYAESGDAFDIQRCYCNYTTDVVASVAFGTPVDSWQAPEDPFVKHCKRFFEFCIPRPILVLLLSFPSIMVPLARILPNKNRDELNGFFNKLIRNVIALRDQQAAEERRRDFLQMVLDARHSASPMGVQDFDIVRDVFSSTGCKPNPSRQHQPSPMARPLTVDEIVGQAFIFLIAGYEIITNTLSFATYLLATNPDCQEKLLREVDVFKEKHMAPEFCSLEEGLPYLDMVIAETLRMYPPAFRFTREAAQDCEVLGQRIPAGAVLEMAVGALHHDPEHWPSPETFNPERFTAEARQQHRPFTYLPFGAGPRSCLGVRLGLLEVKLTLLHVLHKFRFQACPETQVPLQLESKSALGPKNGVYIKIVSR
Note to self: these compounds have log10 of IC50 reported for the protein given by its sequence in various publications.
Response schema: value (number) is log10 of IC50 in units of µM.

A selection of reference data follows.
COc1ccc(S(=O)(=O)NCCc2ccc(/C(=C\CCCC(=O)O)c3cccnc3)cc2)cc1OC ... -2.30
O=C(O)CCCCO/N=C(\c1ccnnc1)c1cccc(C(F)(F)F)c1 ... 0.82
Cl.O=C(O)CCCCCCC(CNS(=O)(=O)c1ccc(Cl)cc1)c1cccnc1 (stereo unspecified) ... -0.62
O=C(O)C/C=C(\c1ccc(CCNS(=O)(=O)c2ccc(Cl)cc2)cc1)c1cccnc1 ... 0.00
O=C(O)CCCCC(c1ccc(CCNS(=O)(=O)c2ccc(Cl)cc2)cc1)c1cccnc1 (stereo unspecified) ... -2.70
O=C(O)CC/C=C\C[C@@H]1CO[C@H](c2ccccc2OCCOc2cc(C(=O)O)ccc2OCCn2ccnc2)O[C@@H]1c1ccccc1O ... -1.52

Consider now this further compound.
Q) Look up the protein given by its sequence data: log10 of IC50 of O=C(O)CCC(CCCCNS(=O)(=O)c1ccc(Cl)cc1)CCCc1cccnc1 (stereo unspecified) , then report it.
A) -2.70

###

Here's a roundup of pIC50 values tested on the protein given by its sequence, taken from various published works.
Target protein (sequence): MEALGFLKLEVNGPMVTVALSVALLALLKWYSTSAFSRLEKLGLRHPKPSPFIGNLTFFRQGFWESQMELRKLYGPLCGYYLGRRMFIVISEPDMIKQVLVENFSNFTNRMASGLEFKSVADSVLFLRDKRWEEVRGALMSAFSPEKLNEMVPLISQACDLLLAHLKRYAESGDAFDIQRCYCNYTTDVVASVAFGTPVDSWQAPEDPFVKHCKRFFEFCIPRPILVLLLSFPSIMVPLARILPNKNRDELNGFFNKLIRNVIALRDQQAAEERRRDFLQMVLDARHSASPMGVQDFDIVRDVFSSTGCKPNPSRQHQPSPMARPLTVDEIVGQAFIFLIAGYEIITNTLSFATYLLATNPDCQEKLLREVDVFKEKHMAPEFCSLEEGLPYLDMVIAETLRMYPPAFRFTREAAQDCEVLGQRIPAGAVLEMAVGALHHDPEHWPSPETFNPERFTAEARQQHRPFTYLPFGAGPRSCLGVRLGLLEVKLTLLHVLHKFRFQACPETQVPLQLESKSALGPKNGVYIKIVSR
pIC50: −log10 of the molar value.
just bin them by pIC50: lower level: < 7; middle level: ≥ 7 and < 8; upper level: ≥ 8

Consider the worked cases shown below.
CNC(=O)c1ccc(OCCn2ccnc2)cc1 ... lower level
O=C(O)CCn1cc(Cn2ccnc2)c2ccccc21 ... middle level
NC(=O)Nc1ccc(OCCn2ccnc2)cc1 ... lower level
O=C(O)c1cccc(OCCn2ccnc2)c1 ... lower level

Q) // bin(item) where item = CCOC(=O)CCCCO/N=C(/c1cccnc1)c1cccc(CNS(=O)(=O)c2ccc(Cn3c(C)nc4ccccc43)cc2)c1
A) upper level

Q) Which pIC50 category applies to O=C(O)CCC/C=C(\c1ccc(CCNS(=O)(=O)c2ccccc2)cc1)c1cccnc1 here?
A) upper level
